Collected set of IC50 measured with CD73 (Homo sapiens (Human), UniProt P21589) across studies.

Please review the entries below; each comes with its answer.
                                   molecule     test_result
0  C[C@@](CO)(OC[C@H]1O[C@@H](n2nnc3c(NC4CCCC4)cc(Cl)nc32)[C@H](O)[C@@H]1O)P(=O)(O)O        ≤ 0.1 µM
1  O=C(NC1CCN(C(=O)C2CCC2)CC1)O[C@@H]1CCN(c2cn[nH]c(=O)c2Cl)C1  0.001 to 10 µM
2  N#C[C@H]1CC[C@H](NC(=O)O[C@@H]2CCN(c3cn[nH]c(=O)c3Cl)C2)CC1  0.001 to 10 µM
3  NC(=O)c1cc(S(=O)(=O)Nc2ccc(CCCNc3nc(N)n4nc(-c5ccco5)nc4n3)cc2F)cc(Cl)c1O    0.11 to 1 µM
4  CN(C(=O)O[C@@H]1CCN(c2cn[nH]c(=O)c2Cl)C1)C1CCCCC1  0.001 to 10 µM

Field IC50 (CD73 (Homo sapiens (Human), UniProt P21589)), entry `CCC(CC)NC(=O)O[C@@H]1CCN(c2cn[nH]c(=O)c2Cl)C1` : 0.001 to 10 µM

Summary: `O=C(Nc1ccc(OC(F)(F)F)cc1)N[C@@H]1CCN(c2cn[nH]c(=O)c2Cl)C1` , CD73 (Homo sapiens (Human), UniProt P21589), IC50 = 0.001 to 10 µM

Tested system CD73 (Homo sapiens (Human), UniProt P21589); IC50 recorded for `O=C(NC1(C2CCCC2)CC1)O[C@@H]1CCN(c2cn[nH]c(=O)c2Cl)C1` was 0.001 to 10 µM

CD73 (Homo sapiens (Human), UniProt P21589) assay, molecule `O=C(N[C@H]1CC[C@H](C(=O)NC2CC2)CC1)O[C@@H]1CCN(c2cn[nH]c(=O)c2Cl)C1` , recorded IC50 = 0.001 to 10 µM

Entry `COCCCNC(=O)N[C@@H]1CCN(c2cn[nH]c(=O)c2Cl)C1` , tested on CD73 (Homo sapiens (Human), UniProt P21589), has a reported IC50 of 10 to 100 µM

So the reported IC50 for `CS(=O)(=O)N1CC[C@@H](NC(=O)O[C@@H]2CCN(c3cn[nH]c(=O)c3Cl)C2)C1` , on CD73 (Homo sapiens (Human), UniProt P21589), turned out to be 0.001 to 10 µM

Entry `CCOc1ccc(NC(=O)N[C@@H]2CCN(c3cn[nH]c(=O)c3Cl)C2)cc1` : IC50 on CD73 (Homo sapiens (Human), UniProt P21589) = 10 to 100 µM
